TARGET_OR_TEST_SYSTEM: QC (Homo sapiens)
ASSAY_METHOD_TEXT: Continuous spectrophotometric assay of substrate conversion, human QC
Type: biochemical
Design: The cDNA of the mature QC starting with codon 38 was fused in frame with the plasmid encoded 6× histidine tag; 6x histidine tag; made in house; host or cells: Pichia pastoris X33 (pPICZαB); also E. coli M15 (pQE-31)
EXPERIMENTAL_PARAMETERS: Table 6; n.r. = not reactive
Peptide text beside a SMILES is read from it.
Some compounds, each annotated with its measured kcat.

COMPOUND | TARGET_OR_TEST_SYSTEM | SCALE_UNIT | kcat
CC(C)[C@H](NC(=O)[C@@H](N)CCC(N)=O)C(=O)O [H-Gln-Val-OH] (H-Gln-Val-OH) | QC (Homo sapiens) | s⁻¹ | 17.2
NC(=O)CC[C@H](NC(=O)[C@@H](N)CCC(N)=O)C(=O)O [H-Gln-Gln-OH] (H-Gln-Gln-OH) | QC (Homo sapiens) | s⁻¹ | 20.7
CC(C)(C)OC(=O)C(N)CCC(N)=O (centres unmarked) | QC (Homo sapiens) | s⁻¹ | 6.7
NC(=O)CC[C@H](N)C(N)=O | QC (Homo sapiens) | s⁻¹ | 12.8

====

TARGET_OR_TEST_SYSTEM: QC (Homo sapiens)
ASSAY_METHOD_TEXT: Enzyme inactivation/reactivation of human QC
Assay type: biochemical
Design: The cDNA of the mature QC starting with codon 38 was fused in frame with the plasmid encoded 6× histidine tag; 6x histidine tag; made in house; host or cells: Pichia pastoris X33 (pPICZαB); also E. coli M15 (pQE-31)
ASSAY_METRIC: inhibition of human QC catalyzed substrate cyclization by chelators

COMPOUND | READING
Oc1cccc2cccnc12 [8-hydroxyquinoline] | abolished
O=C(O)c1cccc(C(=O)O)n1 | abolished

====

TARGET_OR_TEST_SYSTEM: QC (Homo sapiens)
ASSAY_METHOD_TEXT: Continuous spectrophotometric assay of substrate conversion, human QC
Assay type: biochemical
Parameters: The cDNA of the mature QC starting with codon 38 was fused in frame with the plasmid encoded 6× histidine tag; 6x histidine tag; made in house; host or cells: Pichia pastoris X33 (pPICZαB); also E. coli M15 (pQE-31)
Peptide text beside a SMILES is read from it.
ASSAY_METRIC: Km

COMPOUND | TARGET_OR_TEST_SYSTEM | READING
NC(=O)CC[C@H](N)C(=O)N[C@@H](Cc1ccc(O)cc1)C(=O)O [H-Gln-Tyr-OH] (H-Gln-Tyr-OH) | QC (Homo sapiens) | 211 µM
CC(C)[C@H](NC(=O)[C@@H](N)CCC(N)=O)C(=O)O [H-Gln-Val-OH] (H-Gln-Val-OH) | QC (Homo sapiens) | 196 µM
C[C@H](NC(=O)[C@@H](N)CCC(N)=O)C(=O)O [H-Gln-Ala-OH] (H-Gln-Ala-OH) | QC (Homo sapiens) | 232 µM
NC(=O)CC[C@H](NC(=O)[C@@H](N)CCC(N)=O)C(=O)O [H-Gln-Gln-OH] (H-Gln-Gln-OH) | QC (Homo sapiens) | 148 µM

====

TARGET_OR_TEST_SYSTEM: QC (Homo sapiens, UniProt Q16769)
Sequence (Q16769 29-361): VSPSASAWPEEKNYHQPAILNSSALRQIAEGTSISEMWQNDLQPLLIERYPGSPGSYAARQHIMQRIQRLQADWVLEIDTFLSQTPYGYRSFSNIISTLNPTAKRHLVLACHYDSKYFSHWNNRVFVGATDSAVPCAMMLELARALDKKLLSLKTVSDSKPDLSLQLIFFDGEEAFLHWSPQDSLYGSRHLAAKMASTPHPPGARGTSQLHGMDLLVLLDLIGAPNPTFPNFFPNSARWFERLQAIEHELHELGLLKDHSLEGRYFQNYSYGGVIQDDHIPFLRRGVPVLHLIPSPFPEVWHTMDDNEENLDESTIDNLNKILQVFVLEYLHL
ASSAY_METHOD_TEXT: Continuous spectrophotometric assay of substrate conversion, human QC;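 note: initial rates read at 30 °C in a microplate reader, with activity quantified against an ammonia calibration curve under the same assay conditions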
Type: biochemical
Parameters: The cDNA of the mature QC starting with codon 38 was fused in frame with the plasmid encoded 6× histidine tag; 6x histidine tag; made in house; host or cells: Pichia pastoris X33 (pPICZαB); also E. coli M15 (pQE-31)
EXPERIMENTAL_PARAMETERS: Table 6; n.r. = not reactive
Peptide text beside a SMILES is read from it.

MOLECULE | TARGET_OR_TEST_SYSTEM | kcat
NC(=O)CC[C@H](N)C(=O)N[C@@H](Cc1ccc(O)cc1)C(=O)O [H-Gln-Tyr-OH] (H-Gln-Tyr-OH) | QC (Homo sapiens, UniProt Q16769) | 94 ± 1 s⁻¹
Cc1cc(=O)oc2cc(NC(=O)[C@@H](N)CCC(N)=O)ccc12 [H-Gln-AMC] | QC (Homo sapiens, UniProt Q16769) | 5.3 ± 0.1 s⁻¹
C[C@H](NC(=O)[C@@H](N)CCC(N)=O)C(=O)O [H-Gln-Ala-OH] (H-Gln-Ala-OH) | QC (Homo sapiens, UniProt Q16769) | 57.2 ± 0.4 s⁻¹
NC(=O)CC[C@H](N)C(=O)N[C@@H](CCC(=O)O)C(=O)O [H-Gln-Glu-OH] (H-Gln-Glu-OH) | QC (Homo sapiens, UniProt Q16769) | 24.7 ± 0.2 s⁻¹
